target_under_test: Discoidin domain-containing receptor 2 (Homo sapiens)
Sequence (Q16832 whole entry, the tested form may be a part): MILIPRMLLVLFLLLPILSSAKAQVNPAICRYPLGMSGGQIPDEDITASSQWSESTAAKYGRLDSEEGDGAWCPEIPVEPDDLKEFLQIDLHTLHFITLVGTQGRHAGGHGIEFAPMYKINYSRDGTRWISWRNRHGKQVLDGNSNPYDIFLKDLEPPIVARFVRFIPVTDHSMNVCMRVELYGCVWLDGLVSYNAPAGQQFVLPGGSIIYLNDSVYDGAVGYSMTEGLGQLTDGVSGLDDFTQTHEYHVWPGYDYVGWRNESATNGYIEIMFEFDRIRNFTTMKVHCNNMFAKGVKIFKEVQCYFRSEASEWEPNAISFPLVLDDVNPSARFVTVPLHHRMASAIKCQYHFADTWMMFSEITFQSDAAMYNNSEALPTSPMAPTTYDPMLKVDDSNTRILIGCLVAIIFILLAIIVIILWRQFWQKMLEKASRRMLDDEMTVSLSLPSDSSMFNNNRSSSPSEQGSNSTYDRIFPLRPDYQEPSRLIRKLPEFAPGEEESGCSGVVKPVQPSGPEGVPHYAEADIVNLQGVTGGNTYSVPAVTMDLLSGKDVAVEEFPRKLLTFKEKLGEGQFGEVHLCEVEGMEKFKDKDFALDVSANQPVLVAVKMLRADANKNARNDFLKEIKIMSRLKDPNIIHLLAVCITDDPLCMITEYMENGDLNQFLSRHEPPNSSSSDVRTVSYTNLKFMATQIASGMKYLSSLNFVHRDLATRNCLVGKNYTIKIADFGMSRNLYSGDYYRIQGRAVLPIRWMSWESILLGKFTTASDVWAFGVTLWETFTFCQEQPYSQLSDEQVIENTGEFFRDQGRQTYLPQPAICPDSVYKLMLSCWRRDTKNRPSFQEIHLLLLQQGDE
test_summary: Inhibition of recombinant human GST-tagged DDR2 cytoplasmic domain expressed in baculovirus expression system using Fluorescein-Poly GAT as substrate measured after 1 hr by TR-FRET assay
property_name: IC50 (µM)
A number alone suffices; assume µM.

Look up and report measured IC50 for this entry: CC1CN(c2cncnc2)Cc2cc(C(=O)Nc3cc(CCN4CCN(C)CC4)cc(C(F)(F)F)c3)ccc21 (racemic)
1.5

Further cases:
Look up and report measured IC50 for this entry: `CCc1ccc(C(=O)Nc2cc(CN3CCN(C)CC3)cc(C(F)(F)F)c2)cc1C#Cc1ccc2ccnn2c1`
0.203

Look up and report measured IC50 for this entry: CC(C)c1cc(CN2CCN(C)CC2)cc(NC(=O)c2ccc3c(c2)CN(c2cncnc2)CC3C)c1 (racemic)
0.682

Look up and report measured IC50 for this entry: CCN1CCN(Cc2cc(NC(=O)c3ccc4c(c3)CN(c3cncnc3)CC4C)cc(C(F)(F)F)c2)CC1 (configuration not stated)
0.944

Look up and report measured IC50 for this entry: CC1CN(c2cncnc2)Cc2cc(C(=O)Nc3cc(CN4CCN(C5CCCCC5)CC4)cc(C(F)(F)F)c3)ccc21 (racemic)
0.846
